assay: Cytotoxicity against human vinblastine-resistant KBV1 cells after 72 hrs by MTT assay; type: functional, cell-based; conditions: KB-V1, 72 h
pIC50: −log10 of the molar value.
Measurement name: pIC50

compound="CCCCCCCC/C=C\\CCCCCCCC(=O)N/N=C(\\CO)[C@]1(O)Cc2c(O)c3c(c(O)c2[C@@H](O[C@H]2C[C@H](N)[C@H](O)[C@H](C)O2)C1)C(=O)c1c(OC)cccc1C3=O.Cl [DOXORUBICIN OLEYLHYDRAZONE HYDROCHLORIDE]" result=4.90
compound=COc1cccc2c1C(=O)c1c(O)c3c(c(O)c1C2=O)C[C@@](O)(/C(CO)=N/NC(=O)CCCCCCCC(=O)O[C@@H]1C[C@H](C)CC[C@H]1C(C)C)C[C@@H]3O[C@H]1C[C@H](N)[C@H](O)[C@H](C)O1.Cl result=4.66
compound="COc1cccc2c1C(=O)c1c(O)c3c(c(O)c1C2=O)C[C@@](O)(C(=O)CO)C[C@@H]3O[C@H]1C[C@H](N)[C@H](O)[C@H](C)O1.Cl [DOXORUBICIN HYDROCHLORIDE]" result=4.74
compound="CCCCCCCCCCCCCCCCC(=O)N/N=C(\\CO)[C@]1(O)Cc2c(O)c3c(c(O)c2[C@@H](O[C@H]2C[C@H](N)[C@H](O)[C@H](C)O2)C1)C(=O)c1c(OC)cccc1C3=O.Cl [DOXORUBICIN HEPTADECANOYL HYDRAZONE]" result=5.29

* * *

test system: HL-60; assay: Induction of apoptosis in human HL60 cells assessed as appearance of intact mitochondria in cytosol at 5 uM after 6 hrs using JC1 dye relative to control; assay type: functional
Decision: Activity >= 90% yields Y, all other cases yield N.

compound=CC/C=C\C/C=C\C/C=C\CCCCCCCC(=O)N/N=C(\CO)[C@]1(O)Cc2c(O)c3c(c(O)c2[C@@H](O[C@H]2C[C@H](N)[C@H](O)[C@H](C)O2)C1)C(=O)c1c(OC)cccc1C3=O.Cl category_label=Y
compound="CCCCCCCCCCCCCCCCC(=O)N/N=C(\\CO)[C@]1(O)Cc2c(O)c3c(c(O)c2[C@@H](O[C@H]2C[C@H](N)[C@H](O)[C@H](C)O2)C1)C(=O)c1c(OC)cccc1C3=O.Cl [DOXORUBICIN HEPTADECANOYL HYDRAZONE]" category_label=Y
compound=COc1cccc2c1C(=O)c1c(O)c3c(c(O)c1C2=O)C[C@@](O)(/C(CO)=N/NC(=O)CCCCCCCC(=O)O[C@@H]1C[C@H](C)CC[C@H]1C(C)C)C[C@@H]3O[C@H]1C[C@H](N)[C@H](O)[C@H](C)O1.Cl category_label=N
compound=COc1cccc2c1C(=O)c1c(O)c3c(c(O)c1C2=O)C[C@@](O)(/C(CO)=N/NC(=O)CCCCC(=O)O[C@@H]1C[C@H](C)CC[C@H]1C(C)C)C[C@@H]3O[C@H]1C[C@H](N)[C@H](O)[C@H](C)O1.Cl category_label=Y

* * *

system: 518A2; experiment: Induction of apoptosis in human 518A2 cells assessed as appearance of intact mitochondria in cytosol at 5 uM after 18 hrs using JC1 dye relative to control; format: functional
Field 'label' (enum: yes (1) / no (0)). Set to yes (1) when Activity is strictly under 80%; else no (0).

molecule=COc1cccc2c1C(=O)c1c(O)c3c(c(O)c1C2=O)C[C@@](O)(/C(CO)=N/NC(=O)CC(=O)O[C@@H]1C[C@H](C)CC[C@H]1C(C)C)C[C@@H]3O[C@H]1C[C@H](N)[C@H](O)[C@H](C)O1.Cl category_label="yes (1)"
molecule=CCCCC/C=C\C/C=C\CCCCCCCC(=O)N/N=C(\CO)[C@]1(O)Cc2c(O)c3c(c(O)c2[C@@H](O[C@H]2C[C@H](N)[C@H](O)[C@H](C)O2)C1)C(=O)c1c(OC)cccc1C3=O.Cl category_label="no (0)"
molecule=CC/C=C\C/C=C\C/C=C\CCCCCCCC(=O)N/N=C(\CO)[C@]1(O)Cc2c(O)c3c(c(O)c2[C@@H](O[C@H]2C[C@H](N)[C@H](O)[C@H](C)O2)C1)C(=O)c1c(OC)cccc1C3=O.Cl category_label="no (0)"
molecule=COc1cccc2c1C(=O)c1c(O)c3c(c(O)c1C2=O)C[C@@](O)(/C(CO)=N/NC(=O)CCCCCCCC(=O)O[C@@H]1C[C@H](C)CC[C@H]1C(C)C)C[C@@H]3O[C@H]1C[C@H](N)[C@H](O)[C@H](C)O1.Cl category_label="yes (1)"
molecule=COc1cccc2c1C(=O)c1c(O)c3c(c(O)c1C2=O)C[C@@](O)(/C(CO)=N/NC(=O)CCCCCCCCCCC(=O)O[C@H]1C[C@H]2CC[C@]1(C)C2(C)C)C[C@@H]3O[C@H]1C[C@H](N)[C@H](O)[C@H](C)O1.Cl category_label="yes (1)"
molecule="COc1cccc2c1C(=O)c1c(O)c3c(c(O)c1C2=O)C[C@@](O)(C(=O)CO)C[C@@H]3O[C@H]1C[C@H](N)[C@H](O)[C@H](C)O1.Cl [DOXORUBICIN HYDROCHLORIDE]" category_label="yes (1)"

* * *

test system: MCF7; test: Cytotoxicity against human topotecan-resistant MCF7 cells after 24 hrs by MTT assay; type: functional, cell-based; conditions: MCF7, 24 h
Measurement name: IC50 (µM)

molecule="CCCCCCCCCCCCCCCCC(=O)N/N=C(\\CO)[C@]1(O)Cc2c(O)c3c(c(O)c2[C@@H](O[C@H]2C[C@H](N)[C@H](O)[C@H](C)O2)C1)C(=O)c1c(OC)cccc1C3=O.Cl [DOXORUBICIN HEPTADECANOYL HYDRAZONE]" result=5.9
molecule=COc1cccc2c1C(=O)c1c(O)c3c(c(O)c1C2=O)C[C@@](O)(/C(CO)=N/NC(=O)CCCCCCCCCCC(=O)O[C@H]1C[C@H]2CC[C@]1(C)C2(C)C)C[C@@H]3O[C@H]1C[C@H](N)[C@H](O)[C@H](C)O1.Cl result=6.3
molecule=COc1cccc2c1C(=O)c1c(O)c3c(c(O)c1C2=O)C[C@@](O)(/C(CO)=N/NC(=O)CCCCCCCC(=O)O[C@@H]1C[C@H](C)CC[C@H]1C(C)C)C[C@@H]3O[C@H]1C[C@H](N)[C@H](O)[C@H](C)O1.Cl result=10.2
molecule=CCCCC/C=C\C/C=C\CCCCCCCC(=O)N/N=C(\CO)[C@]1(O)Cc2c(O)c3c(c(O)c2[C@@H](O[C@H]2C[C@H](N)[C@H](O)[C@H](C)O2)C1)C(=O)c1c(OC)cccc1C3=O.Cl result=40.5
molecule=COc1cccc2c1C(=O)c1c(O)c3c(c(O)c1C2=O)C[C@@](O)(/C(CO)=N/NC(=O)CC(=O)O[C@@H]1C[C@H](C)CC[C@H]1C(C)C)C[C@@H]3O[C@H]1C[C@H](N)[C@H](O)[C@H](C)O1.Cl result=8.4

* * *

test: Cytotoxicity against human vinblastine-resistant KBV1 cells after 48 hrs by MTT assay; format: functional, cell-based; settings: KB-V1, 48 h
pIC50: −log10 of the molar value.
// reported pIC50 for each item listed
Measurement name: pIC50

molecule=COc1cccc2c1C(=O)c1c(O)c3c(c(O)c1C2=O)C[C@@](O)(/C(CO)=N/NC(=O)CCCCCCCC(=O)O[C@@H]1C[C@H](C)CC[C@H]1C(C)C)C[C@@H]3O[C@H]1C[C@H](N)[C@H](O)[C@H](C)O1.Cl result=4.67
molecule=COc1cccc2c1C(=O)c1c(O)c3c(c(O)c1C2=O)C[C@@](O)(/C(CO)=N/NC(=O)CC(=O)O[C@@H]1C[C@H](C)CC[C@H]1C(C)C)C[C@@H]3O[C@H]1C[C@H](N)[C@H](O)[C@H](C)O1.Cl result=4.74
molecule=COc1cccc2c1C(=O)c1c(O)c3c(c(O)c1C2=O)C[C@@](O)(/C(CO)=N/NC(=O)CCCCC(=O)O[C@@H]1C[C@H](C)CC[C@H]1C(C)C)C[C@@H]3O[C@H]1C[C@H](N)[C@H](O)[C@H](C)O1.Cl result=4.46
molecule=CC/C=C\C/C=C\C/C=C\CCCCCCCC(=O)N/N=C(\CO)[C@]1(O)Cc2c(O)c3c(c(O)c2[C@@H](O[C@H]2C[C@H](N)[C@H](O)[C@H](C)O2)C1)C(=O)c1c(OC)cccc1C3=O.Cl result=4.69
molecule=COc1cccc2c1C(=O)c1c(O)c3c(c(O)c1C2=O)C[C@@](O)(/C(CO)=N/NC(=O)CCCCCCCCCCC(=O)O[C@@H]1C[C@H](C)CC[C@H]1C(C)C)C[C@@H]3O[C@H]1C[C@H](N)[C@H](O)[C@H](C)O1.Cl result=4.77
molecule="COc1cccc2c1C(=O)c1c(O)c3c(c(O)c1C2=O)C[C@@](O)(C(=O)CO)C[C@@H]3O[C@H]1C[C@H](N)[C@H](O)[C@H](C)O1.Cl [DOXORUBICIN HYDROCHLORIDE]" result=4.45
molecule="CCCCCCCCCCCCCCCCC(=O)N/N=C(\\CO)[C@]1(O)Cc2c(O)c3c(c(O)c2[C@@H](O[C@H]2C[C@H](N)[C@H](O)[C@H](C)O2)C1)C(=O)c1c(OC)cccc1C3=O.Cl [DOXORUBICIN HEPTADECANOYL HYDRAZONE]" result=4.97
molecule="CCCCCCCC/C=C\\CCCCCCCC(=O)N/N=C(\\CO)[C@]1(O)Cc2c(O)c3c(c(O)c2[C@@H](O[C@H]2C[C@H](N)[C@H](O)[C@H](C)O2)C1)C(=O)c1c(OC)cccc1C3=O.Cl [DOXORUBICIN OLEYLHYDRAZONE HYDROCHLORIDE]" result=4.75
